Hello, the source for this data is ChEMBL document CHEMBL2413060, in case you need it.

Test system: Staphylococcus aureus
Assay: Antibacterial activity against Staphylococcus aureus ATCC 6538P after 24 hrs by two-fold serial dilution method
Assay type: functional
TEST_READOUT: MIC (µg/mL)
Numbers only; they are read as µg/mL.

1) N#Cc1c(N2CCN(Cc3ccccc3)CC2)nc(=S)[nH]c1-c1ccco1
3.91

[in] Name the reported MIC value associated with the molecule N#Cc1c(-c2ccccc2)nc(SCC(=O)Nc2ccc(Cl)cc2)[nH]c1=O
[out] 3.91

[in] Name the reported MIC value associated with the molecule N#Cc1c(-c2ccco2)nc(SCC2CO2)[nH]c1=O (stereo not given)
[out] 125

[in] Name the reported MIC value associated with the molecule N#Cc1c(N2CCCCC2)nc(=S)[nH]c1-c1ccco1
[out] 125

[in] Name the reported MIC value associated with the molecule CC1(C)S[C@@H]2[C@H](NC(=O)[C@H](N)c3ccccc3)C(=O)N2[C@H]1C(=O)O [AMPICILLIN]
[out] 3.91
